# study.system: Fibroblast growth factor 2 (Homo sapiens)
# experiment.description: FGF2 binders on small-molecule microarrays, primary screen, biochemical, small-molecule microarray, 635/667 nm fluorescence (AID 1133)
# experimental.context: small-molecule microarray binding, FGF2, fluorescence 635/667; higher = more signal
readout.kind: composite z-score
# answer = number (no unit)

Problem: Bench note: what composite z-score did COC(=O)c1c(CC[C@@H](CO)NC(=O)Nc2ccc(OC)cc2)oc(C(=O)Cc2ccccc2)c1C(=O)OC show?
Result: 0.434

Problem: For the molecule shown here, CCCCC(=C=CC[C@H](O)c1cccc(OCCO)c1)CCO , give the reported composite z-score.
Result: 0.287

Problem: GET /values?readout=composite z-score&item= COc1ccc([Si](C)(C)[C@H]2[C@H](CC(=O)N(CCO)Cc3ccccc3)O[C@@]3(C(=O)N(Cc4ccc(N5CCOC5=O)cc4)c4ccccc43)[C@@H]2C)cc1
Result: 0.66

Problem: Entry under review: O=C(NCc1ccccc1)[C@@H]1c2ccccc2C(=O)N(Cc2ccccc2Cl)[C@H]1c1ccc(CO)cc1 . Reported composite z-score?
Result: 1.22

Problem: For the molecule shown here, CC(CO)N1C(=O)[C@@H]2C3C(=O)OCCC/C=C\[C@H]3OC23C=CCN(Cc2ccccc2)C(=O)[C@@H]13 (stereo not given in full) , give the reported composite z-score.
Result: -0.426

Problem: Looking for the measured composite z-score of CC(C)(C)OC(=O)CC[C@@]1(C(=O)N2CCOCC2)N=C(c2ccc(OCCCO)cc2)O[C@@H]1c1ccccc1 , can you help?
Result: 0.324

Problem: Please report the recorded composite z-score for COCCOC(=O)N1C(=O)[C@@]2(c3cc(C#CCNC(N)=O)ccc31)[C@H](C(=O)NC[C@H](O)c1ccccc1)[C@H]1C(=O)O[C@H](c3ccccc3)[C@H](c3ccccc3)N1[C@@H]2c1ccc(O)cc1 .
Result: 0.674

Problem: Would you mind telling me what composite z-score value was observed for CC(C)C(=C=CC[C@@H](O)c1ccc(CO)o1)CCO ?
Result: 1.05

Problem: Any idea what composite z-score was measured for CO[C@H]1O[C@H](CO)[C@@H](OC(=O)CCc2ccccc2)[C@@H]2OC(=O)[C@H](Cc3ccccc3)C/C=C/C[C@@H](Cc3ccccc3)C(=O)O[C@@H]12 ?
Result: -0.38

Problem: // query composite z-score value for entry CCOC(=O)C[C@H]1[C@H](OC(=O)c2ccc(C(=O)c3ccccc3)cc2)[C@@H](NC(=O)Cc2ccc(OC)cc2)c2cc(OCCCO)ccc2N1C(=O)Cc1ccc(OC)cc1
Result: -0.078

###

Answer each item with its documented Fgf4 expression fold change.
# experiment.description: Fgf4 mRNA decrease in mouse ESCs, confirmation, esBAF inhibitor project, cell-based, mouse ESC, RT-qPCR, cherry-pick (AID 743177);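 further: Fgf4 transcript normalised to actin in duplex TaqMan qPCR; cells exposed to compound for 24 h before lysis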
# experimental.context: mouse ESC E14, Fgf4 mRNA qPCR fold change; Fgf4 expression; at 7 µM; stronger effect = lower value
Some of the results follow. Records with an inconclusive call do not appear.

Problem: Fgf4 expression fold change lookup needed for COc1ccc(CNC(=O)COc2ccccc2C(=O)c2cnn(-c3ccccc3)c2)cc1OC , thanks.
Result: 1.03

Problem: Bench note: what Fgf4 expression fold change did CC(Cc1cccs1)NC(=O)c1cccc(Cl)c1 (stereo not given) show?
Result: 1.02

Problem: Entry O=C(NN=Cc1ccc2c(c1)CCC2)c1ccccc1O : reported Fgf4 expression fold change = ?
Result: 0.906

Problem: Which measured Fgf4 expression fold change value corresponds to O=C(CCNC(=O)c1ccccc1)Nc1nc2ccccc2s1 ?
Result: 0.839

Problem: Tell me the measured Fgf4 expression fold change of C/C(=C\C(=O)c1cccnc1)Nc1ccc(C)c(C)c1 , please.
Result: 1.06

Problem: Dear colleague, I am looking for the recorded Fgf4 expression fold change of the following molecule: CC(C)(C)NC(=O)Cn1nnc(-c2ccccc2Cl)n1
Result: 0.977

Problem: GET /values?readout=Fgf4 expression fold change&item= CCS(=O)(=O)n1nc(-c2ccc(OC)cc2)nc1SC
Result: 0.938

Problem: Quick check: Fgf4 expression fold change of O=C(c1cc(-c2ccc(Cl)cc2)on1)N1CCN(c2ccccc2)CC1 ?
Result: 1.02

Problem: Dear colleague, I am looking for the recorded Fgf4 expression fold change of the following molecule: O=C(Nc1cccnc1Cl)c1cc(-c2ccccc2O)on1
Result: 1.2

Problem: Any idea what its Fgf4 expression fold change is? The molecule is Clc1cccc(Cl)c1Cn1nnc(-c2cccs2)n1
Result: 1.02

Problem: Which Fgf4 expression fold change is reported for this molecule? CCc1c(C)sc(NC(=O)c2cccs2)c1C(N)=O
Result: 1.09

Problem: Reported Fgf4 expression fold change, molecule COc1ccc(C(=O)CCc2ccccc2O)c(OC)c1 : ____
Result: 0.836

Problem: For Cc1cc(Cl)nc(NC(=O)Nc2cccc(Cl)c2)n1 , what is its reported Fgf4 expression fold change?
Result: 0.987

Problem: Fgf4 expression fold change for COC(=O)/C(=C1\Oc2ccc(C(C)(C)C)cc2S1)C(F)(F)F ?
Result: 1.06

Problem: Field request: Fgf4 expression fold change | item: Cc1ccc(C(=O)Nc2ccc3c(c2)OCO3)cc1S(=O)(=O)N1CCCCC1
Result: 0.993

###

# study.system: Torsin-1A-interacting protein 1 (Homo sapiens)
# experiment.description: LAP1 binders from COS7 cell lysate, primary screen, small-molecule microarray, 635/667 nm fluorescence (AID 1116)
# experimental.context: COS7-hLAP1 lysate binding, 635 nm fluorescence, higher = more signal
What composite z-score was measured for each of the following?

Problem: Please provide the recorded composite z-score for COc1c(C)cc(-c2cc3c(c(CCc4ccccc4)n2)[Si](C(C)C)(C(C)C)OC3)cc1C , tested on Torsin-1A-interacting protein 1 (Homo sapiens).
Result: 0.0693

Problem: Param readout = composite z-score; param system = Torsin-1A-interacting protein 1 (Homo sapiens); param query = C=CCN1C(=O)[C@@]2(O[C@@H](CCO)[C@H]([Si](C)(C)c3ccc(OC)cc3)[C@H]2C)c2cc(N3C(=O)c4cccc5cccc3c45)ccc21 ; response: value
Result: 0.201

Problem: Give recorded composite z-score with Torsin-1A-interacting protein 1 (Homo sapiens) for the following compound: COC(=O)[C@@]1(CCC(=O)OC(C)(C)C)COC(c2ccc(OCCCO)cc2)=N1
Result: -0.123

Problem: Look up composite z-score with Torsin-1A-interacting protein 1 (Homo sapiens) for this compound: CCCCC(=C=CC[C@@H](O)c1ccc(OCCO)cc1)C[C@@H](O)c1cc(Cl)cc(Cl)c1O
Result: 0.497

Problem: # value lookup — system Torsin-1A-interacting protein 1 (Homo sapiens), readout composite z-score, item COc1ccc([Si](C)(C)[C@H]2[C@H](CC(=O)N3Cc4ccccc4C[C@H]3CO)O[C@@]3(C(=O)N(Cc4cccc(N5C(=O)COc6ccccc65)c4)c4ccccc43)[C@@H]2C)cc1
Result: 0.7

Problem: Recorded composite z-score for COc1ccc(C#Cc2ccc3c(c2)[C@]2(C(=O)N3)[C@H](c3ccc(O)cc3)N3[C@H](c4ccccc4)[C@H](c4ccccc4)OC(=O)[C@H]3[C@@H]2C(N)=O)cc1 with Torsin-1A-interacting protein 1 (Homo sapiens), please?
Result: -0.203

Problem: Identify the measured composite z-score of CCOC(=O)C[C@H]1[C@H](OC(=O)c2cc3ccccc3oc2=O)[C@@H](NC(=O)c2ccccc2)c2cc(OCCCO)ccc2N1C(=O)Cc1ccc(OC)cc1 for Torsin-1A-interacting protein 1 (Homo sapiens).
Result: 0.44

Problem: Under Torsin-1A-interacting protein 1 (Homo sapiens): composite z-score value of C=CCN1C(=O)[C@@]2(O[C@@H](CCn3cc(CCO)nn3)[C@H]([Si](C)(C)c3ccc(OC)cc3)[C@H]2C)c2cc(N3C(=O)c4cccc5cccc3c45)ccc21 ?
Result: 0.482

Problem: Lab note: need composite z-score for CCCCCN1CC=CC23O[C@@H]4/C=C\CCC(C)OC(=O)C4[C@H]2C(=O)N(CCO)[C@@H]3C1=O (some centres undefined) on Torsin-1A-interacting protein 1 (Homo sapiens), anyone have it?
Result: -0.0418

Problem: Observed composite z-score on Torsin-1A-interacting protein 1 (Homo sapiens) for COCCOC(=O)N1C(=O)[C@@]2(c3cc(C#CCNC(N)=O)ccc31)[C@H](c1ccccc1OCCO)N1[C@H](c3ccccc3)[C@H](c3ccccc3)OC(=O)[C@H]1[C@@H]2C(=O)Nc1nc2ccccc2s1 , please.
Result: 0.745

Problem: Write down the reported composite z-score of O=C(N1CCCCC1)[C@@]1(Cc2ccccc2)N=C(c2ccc(OCCCO)cc2)O[C@H]1c1ccccc1 , test system: Torsin-1A-interacting protein 1 (Homo sapiens).
Result: 2.95

Problem: Hi! What's the reported composite z-score for CCCNC(=O)[C@@H]1c2ccccc2C(=O)N(Cc2cc(C(F)(F)F)cc(C(F)(F)F)c2)[C@H]1c1ccc(CO)cc1 on Torsin-1A-interacting protein 1 (Homo sapiens)?
Result: 0.238

Problem: Can you look up composite z-score on Torsin-1A-interacting protein 1 (Homo sapiens) for C#CCOc1ccc(C[C@H]2C(=O)O[C@H](Cc3ccccc3)[C@H](/C=C/C3CC3)N2CC#C)cc1 ?
Result: 0.204

Problem: Torsin-1A-interacting protein 1 (Homo sapiens) / composite z-score / C=C(/C(=C/C[C@H](OC(C)=O)c1cccc(OCCO)c1)c1cc(C(=O)OC)ccc1OC)C(C)C : value?
Result: 0.19
